test: Half life in rat at 10 mg/kg, iv; type: ADME, organism-based; parameters: dose 10 mg/kg, route intravenous; conditions: in vivo
readout.name: half-life (h)

>>> test_value("O=[N+]([O-])c1ccc(C2=NOC(c3ccc(N4CCN(Cc5ccccc5)CC4)cc3)C2)o1 (stereo unspecified)")
2.6

----------
assay: Solubility at pH 6.0 by shake-flask method; assay type: physicochemical; conditions: buffer
Quick list: solubility thermodynamic per entry.
readout.name: solubility thermodynamic (µg/mL)

>>> test_value("CC(C)NC(=O)N1CCN(c2ccc(C3CC(c4ccc([N+](=O)[O-])o4)=NO3)cc2)CC1 (centres undefined)")
27.7
>>> test_value("CCOC(=O)N1CCN(c2ccc(C3CC(c4ccc([N+](=O)[O-])o4)=NO3)cc2)CC1 (centres undefined)")
4
>>> test_value("O=[N+]([O-])c1ccc(C2=NOC(c3ccc(N4CCN(Cc5ccccc5)CC4)cc3)C2)o1 (centres undefined)")
3.34
>>> test_value("O=[N+]([O-])c1ccc(C2=NOC(c3ccc(N4CCCCC4)cc3)C2)o1 (centres undefined)")
0.017

----------
assay: Stability in rat liver microsomes after 90 mins; type: ADME, Microsome; conditions: read-out: Stability
readout.name: remaining at 1.5 h (%)

>>> test_value("CC(C)NC(=O)N1CCN(c2ccc(C3CC(c4ccc([N+](=O)[O-])o4)=NO3)cc2)CC1 (centres undefined)")
26
>>> test_value("CCOC(=O)N1CCN(c2ccc(C3CC(c4ccc([N+](=O)[O-])o4)=NO3)cc2)CC1 (centres undefined)")
12
>>> test_value("O=[N+]([O-])c1ccc(C2=NOC(c3ccc(N4CCCCC4)cc3)C2)o1 (centres undefined)")
6
>>> test_value("O=[N+]([O-])c1ccc(C2=NOC(c3ccc(N4CCN(Cc5ccccc5)CC4)cc3)C2)o1 (centres undefined)")
31

----------
assay: Bioavailability in rat at 100 mg/kg, po; format: ADME, organism-based; conditions: in vivo
readout.name: bioavailability (%)

>>> test_value("O=[N+]([O-])c1ccc(C2=NOC(c3ccc(N4CCN(Cc5ccccc5)CC4)cc3)C2)o1 (stereo unspecified)")
34.5

----------
experiment: Clearance in rat at 10 mg/kg, iv; type: ADME, organism-based; parameters: dose 10 mg/kg, route intravenous; details: in vivo
readout.name: clearance (mL/min/kg)

>>> test_value("O=[N+]([O-])c1ccc(C2=NOC(c3ccc(N4CCN(Cc5ccccc5)CC4)cc3)C2)o1 (stereo unspecified)")
8.83

----------
assay: AUC (0 to infinity) in rat at 10 mg/kg, iv; type: ADME, organism-based; parameters: time infinity, dose 10 mg/kg, route intravenous; conditions: plasma
readout.name: AUC(0-inf)

>>> test_value("O=[N+]([O-])c1ccc(C2=NOC(c3ccc(N4CCN(Cc5ccccc5)CC4)cc3)C2)o1 (stereo unspecified)")
"19100 ng·h/mL"

----------
assay: AUC (0 to infinity) in rat at […]; assay type: ADME, organism-based; design: time infinity; details: plasma
readout.name: AUC(0-inf) (µg·h/mL)

>>> test_value("O=[N+]([O-])c1ccc(C2=NOC(c3ccc(N4CCN(Cc5ccccc5)CC4)cc3)C2)o1 (stereo unspecified)")
65.9

----------
experiment: Solubility at pH 7.4 by shake-flask method; assay type: physicochemical; conditions: buffer
We begin with a simple list: items and their reported solubility thermodynamic.
readout.name: solubility thermodynamic (µg/mL)

>>> test_value("CC(C)NC(=O)N1CCN(c2ccc(C3CC(c4ccc([N+](=O)[O-])o4)=NO3)cc2)CC1 (stereo not drawn)")
20
>>> test_value("O=[N+]([O-])c1ccc(C2=NOC(c3ccc(N4CCN(Cc5ccccc5)CC4)cc3)C2)o1 (stereo not drawn)")
0.236
>>> test_value("CCOC(=O)N1CCN(c2ccc(C3CC(c4ccc([N+](=O)[O-])o4)=NO3)cc2)CC1 (stereo not drawn)")
3.6
